# test: chemical genetic growth profiling, strain panel (AID 1159580);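 note: tested at 20 µM; growth read once vehicle control cultures reached saturation at 30 °C; 1 = growth at the plate median or of vehicle wells; lower values mean less growth of the strain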
# measurement context: S. cerevisiae deletion strains, growth OD, locus YJR043C, strain POL32, active compounds read low
About 2,000 (36%) of roughly 5,500 compounds were called active. About 18% were inconclusive and are not listed. This is one part of the list.
measure: normalized growth
Keep it simple and answer with nothing but the number.

CNC(C)(C)Cc1ccccc1; 0.977
CCCc1ccc(-c2nc(-c3ccc(C)cc3)no2)cc1; 0.991
CC(C)(C)S(=O)(=O)c1cnc(N)nc1N; 0.985

Record COc1cc(Cc2cnc(N)nc2N)cc(OC)c1OC , field normalized growth: 1

Record C=C[C@H]1CN2CC[C@H]1C[C@H]2[C@H](O)c1ccnc2ccccc12 , field normalized growth: 1.01

Record O=C1NCCN=C(c2ccccc2)c2ccccc21 , field normalized growth: 0.995

Record CC(NC(C)(C)C)C(=O)c1cccc(Cl)c1 (centres undefined) , field normalized growth: 1

Record CC(C)Cn1c(=O)n(C)c(=O)c2[nH]cnc21 , field normalized growth: 0.983
